Overview of recorded EC50 for various compounds
- Assayed system: human APJ receptor (Homo sapiens (Human))
- Sequence (P35414 whole entry): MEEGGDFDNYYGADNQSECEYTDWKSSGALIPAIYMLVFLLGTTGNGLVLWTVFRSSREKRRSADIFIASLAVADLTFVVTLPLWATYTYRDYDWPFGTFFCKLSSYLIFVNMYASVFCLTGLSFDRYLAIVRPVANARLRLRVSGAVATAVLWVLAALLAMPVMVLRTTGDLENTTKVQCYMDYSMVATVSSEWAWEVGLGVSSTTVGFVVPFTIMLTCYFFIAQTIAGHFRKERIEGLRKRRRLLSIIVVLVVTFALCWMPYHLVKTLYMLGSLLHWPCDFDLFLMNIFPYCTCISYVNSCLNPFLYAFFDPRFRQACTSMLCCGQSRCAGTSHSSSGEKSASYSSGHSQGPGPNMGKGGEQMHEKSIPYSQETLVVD
- Method: biochemical
- Format: biochemical
- Test conditions: [35S]GTPγS binding, CHO membranes expressing human APJ receptor; read-out: Activity hAPJ SPA EC50 IP
- Method: The human APJ receptor was cloned by polymerase chain reaction and the gene encoding the receptor was subcloned in pFLAG-CMV™-3 expression vector (Sigma, Saint Louis, Mo. USA) in-house at Amgen. […] The optimum experimental conditions for the concentrations of GDP, MgCl2, and NaCl in the assay buffer were initially determined. […] Incubation was at RT for 90 min and the microplate was read using a ViewLux™ ultra HTS Microplate Imager (PerkinElmer, Inc.).

# Compound, Result unit, EC50
rows = [
    ("COc1cccc(OC)c1-n1c(NS(=O)(=O)[C@@H](C)[C@H](OC)c2ncc(Cl)cn2)nnc1-c1noc(C)c1C", "nM", 0.93),
    ("COc1cccc(OC)c1-n1c(NS(=O)(=O)[C@@H](C)[C@@H](C)c2ncc(F)cn2)nnc1-c1nc(C)cs1 (single isomer, unassigned)", "nM", 4.6),
    ("COCC1(n2c(NS(=O)(=O)[C@@H](C)[C@H](OC)c3ncc(Cl)cn3)nnc2-c2n[nH]c3c2CCCC3)CC1", "nM", 15),
    ("COc1cccc(OC)c1-n1c(NS(=O)(=O)CCc2ccc(Cl)cc2)nnc1-c1ncco1", "nM", 71),
    ("COc1cnc([C@@H](C)[C@H](C)S(=O)(=O)Nc2nnc(-c3ccn(C)n3)n2-c2c(OC)cccc2OC)nc1", "nM", 0.4),
    ("Cc1cnc([C@@H](C)[C@H](C)S(=O)(=O)Nc2nnc(-c3ccn(C)n3)n2-c2c(F)cccc2F)nc1", "nM", 11),
    ("COc1cccc(OC)c1-n1c(NS(=O)(=O)[C@@H](C)[C@H](OC)c2ncc(F)cn2)nnc1-c1cc(C)[nH]n1", "nM", 8.1),
]
